- Assay text: Mean residence time (infinity) in Balb/c mouse at 50 mg/kg, ip by LC-MS/MS analysis
- Assay type: ADME, organism-based
- Protocol conditions: in vivo
Readout label: MRT inf (h)
Report only the number, with the unit h understood.

Quick check: MRT inf of O=C(O[C@H]1CCC[C@@]2(C1)OOC1(O2)C2CC3CC(C2)CC1C3)N1CCCC[C@@H]1[C@@H](O)c1cc(C(F)(F)F)nc2c(C(F)(F)F)cccc12 (stereo partly specified) ?
11

---

- Assay text: Mean residence time (last) in Balb/c mouse at 50 mg/kg, ip by LC-MS/MS analysis
- Type: ADME, organism-based
- Protocol conditions: in vivo
Readout label: MRT last

Would you mind telling me what MRT last value was observed for O=C(O[C@H]1CCC[C@@]2(C1)OOC1(O2)C2CC3CC(C2)CC1C3)N1CCCC[C@@H]1[C@@H](O)c1cc(C(F)(F)F)nc2c(C(F)(F)F)cccc12 (stereo partly specified) ?
6.93 h

---

- Assay text: Apparent volume of distribution during terminal phase in Balb/c mouse at 50 mg/kg, ip by LC-MS/MS analysis
- Format: ADME, organism-based
- Protocol conditions: in vivo, read-out: Vz/F
Readout label: Vd/F (L/kg)
I only need the number, in L/kg, no unit after it.

For O=C(O[C@H]1CCC[C@@]2(C1)OOC1(O2)C2CC3CC(C2)CC1C3)N1CCCC[C@@H]1[C@@H](O)c1cc(C(F)(F)F)nc2c(C(F)(F)F)cccc12 (stereo partly specified) , what is its reported Vd/F?
17.8

---

A collection of molecules and their measured remaining at 4 h
- Assay text: Stability in human plasma after 240 mins by LC/MS analysis
- Format: ADME, cell-free
- Protocol conditions: read-out: Stability
Write the value in % as a bare number.

>  <Molecule>
O[C@@H](c1cc(C(F)(F)F)nc2c(C(F)(F)F)cccc12)[C@H]1CCCCN1 (racemic) [(S,R)-MEFLOQUINE]

>  <remaining at 4 h / %>
97

$$$$

Kindly consider the entry below.
Dear colleague, I am looking for the recorded remaining at 4 h of the following molecule: O=C(O[C@H]1CCC[C@@]2(C1)OOC1(O2)C2CC3CC(C2)CC1C3)N1CCCC[C@@H]1[C@@H](O)c1cc(C(F)(F)F)nc2c(C(F)(F)F)cccc12 (some centres not stated)
94

---

- Assay text: Apparent oral clearance in Plasmodium chabaudi infected Balb/c mouse at 50 mg/kg, ip by LC-MS/MS analysis
- Assay type: ADME, organism-based
- Protocol conditions: in vivo
Readout label: CL/F (mL/min/kg)
Numbers only; they are read as mL/min/kg.

What value of measured CL/F is listed for O=C(O[C@H]1CCC[C@@]2(C1)OOC1(O2)C2CC3CC(C2)CC1C3)N1CCCC[C@@H]1[C@@H](O)c1cc(C(F)(F)F)nc2c(C(F)(F)F)cccc12 (stereo partly specified) ?
61.2

---

- Assay text: Cmax in Plasmodium chabaudi infected Balb/c mouse at 50 mg/kg, ip by LC-MS/MS analysis
- Assay type: ADME, organism-based
- Set-up: dose 50 mg/kg, route intraperitoneal
- Protocol conditions: in vivo
Readout label: Cmax (ng/mL)
All answers are understood in ng/mL, so give the number only.

Which Cmax is listed for O=C(O[C@H]1CCC[C@@]2(C1)OOC1(O2)C2CC3CC(C2)CC1C3)N1CCCC[C@@H]1[C@@H](O)c1cc(C(F)(F)F)nc2c(C(F)(F)F)cccc12 (stereo partly specified) ?
1570
